target: human serotonin reuptake transporter (Homo sapiens, UniProt P31645); assay: cell-based; conditions: recombinant human serotonin transporter (SERT); read-out: Human IC50 (nM) hSERT
Sequence (P31645 whole entry): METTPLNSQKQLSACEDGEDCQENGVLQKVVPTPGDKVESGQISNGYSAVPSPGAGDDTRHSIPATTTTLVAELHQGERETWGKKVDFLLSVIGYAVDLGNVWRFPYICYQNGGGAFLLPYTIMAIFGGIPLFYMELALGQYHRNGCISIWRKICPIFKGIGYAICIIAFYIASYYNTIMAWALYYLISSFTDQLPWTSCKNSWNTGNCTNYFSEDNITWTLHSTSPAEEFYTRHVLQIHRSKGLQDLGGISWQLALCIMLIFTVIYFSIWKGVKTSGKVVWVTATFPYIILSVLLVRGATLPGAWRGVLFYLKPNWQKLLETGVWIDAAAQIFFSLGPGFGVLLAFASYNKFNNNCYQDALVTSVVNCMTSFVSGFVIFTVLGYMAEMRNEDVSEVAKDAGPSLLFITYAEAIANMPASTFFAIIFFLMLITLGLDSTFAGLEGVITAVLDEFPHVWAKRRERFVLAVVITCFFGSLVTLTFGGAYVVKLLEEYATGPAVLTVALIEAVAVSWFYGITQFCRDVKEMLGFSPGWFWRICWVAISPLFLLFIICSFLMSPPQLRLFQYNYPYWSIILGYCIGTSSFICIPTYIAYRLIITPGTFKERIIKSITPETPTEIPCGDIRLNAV
measurement-kind: IC50

Study these solved cases before continuing.
NCC1(c2ccc(Cl)c(Cl)c2)CCC(Oc2ccccc2)CC1 (stereo not drawn) : 109 nM
CN(C)CC1(c2ccc3c(c2)OCO3)CCC(C)(O)CC1 (stereo not drawn) [Compound 240] : 1810 nM
NCC1(c2ccc(OC(F)(F)F)cc2)CCC(O)CC1 (stereo not drawn) : 6150 nM

Asked: Give the measured IC50 of CNC(C)C1(c2ccc(OC(F)(F)F)cc2)CCCCC1 (single isomer, unassigned) [64 E1] .
Given back: 58 nM
